test: Metabolic stability in human liver microsomes assessed as compound remaining at 10 ug/ml after 30 mins by LC/MS/MS analysis relative to control; format: ADME; details: read-out: Stability
Please respond with reported remaining at 0.5 h, 10 ug/ml for every item in the list.
Your answer should be a number followed by the unit of measure.

{"molecule": "NC1CCN(C2CCC3(CC2)OOC2(OO3)C3CC4CC(C3)CC2C4)CC1 (configuration not stated)", "remaining at 0.5 h, 10 ug/ml": "73.6%"}

Now consider the entry below.
Query (molecule): CN1CCN(C2CCN(C(=O)CC3CCC4(CC3)OOC3(OO4)C4CC5CC(C4)CC3C5)CC2)CC1 (configuration not stated) ; field requested: remaining at 0.5 h, 10 ug/ml
40.6%

The measurements presented in this section are drawn from ChEMBL document CHEMBL3217563.
